Quick reference for CDK7 (20 nM enz.) (kinact, s^−1) among some compounds
Biological target: CDK7/cyclinH/MAT1 trimeric complex (Homo sapiens, UniProt P50613)
Sequence (P50613 whole entry): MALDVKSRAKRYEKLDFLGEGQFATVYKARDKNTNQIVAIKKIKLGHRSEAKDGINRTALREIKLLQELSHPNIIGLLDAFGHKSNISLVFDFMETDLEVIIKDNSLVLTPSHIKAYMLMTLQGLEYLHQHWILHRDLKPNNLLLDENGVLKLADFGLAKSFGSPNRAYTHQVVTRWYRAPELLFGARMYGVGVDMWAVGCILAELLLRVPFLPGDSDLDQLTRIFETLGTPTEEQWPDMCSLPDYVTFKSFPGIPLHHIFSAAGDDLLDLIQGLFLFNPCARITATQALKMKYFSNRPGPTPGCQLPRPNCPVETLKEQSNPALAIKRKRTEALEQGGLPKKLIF
Sequence (P51946 whole entry partner): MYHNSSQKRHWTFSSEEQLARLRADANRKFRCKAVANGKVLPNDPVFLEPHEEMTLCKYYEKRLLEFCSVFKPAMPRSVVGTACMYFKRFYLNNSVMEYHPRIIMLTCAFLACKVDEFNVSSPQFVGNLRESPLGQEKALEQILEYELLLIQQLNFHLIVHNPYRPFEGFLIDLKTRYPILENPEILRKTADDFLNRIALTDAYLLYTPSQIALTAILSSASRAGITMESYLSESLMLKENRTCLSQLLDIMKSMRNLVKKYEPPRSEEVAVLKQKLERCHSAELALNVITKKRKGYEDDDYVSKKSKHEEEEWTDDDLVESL
Sequence (P51948 whole entry partner): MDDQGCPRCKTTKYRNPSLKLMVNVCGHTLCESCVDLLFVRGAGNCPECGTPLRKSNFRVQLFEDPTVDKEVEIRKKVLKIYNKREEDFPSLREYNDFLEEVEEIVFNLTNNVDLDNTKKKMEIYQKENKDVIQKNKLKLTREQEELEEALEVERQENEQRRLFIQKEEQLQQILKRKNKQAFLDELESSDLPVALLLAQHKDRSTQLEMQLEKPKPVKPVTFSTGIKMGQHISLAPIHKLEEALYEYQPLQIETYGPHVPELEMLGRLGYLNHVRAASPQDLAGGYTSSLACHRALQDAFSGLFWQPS
Assay: In vitro CDK7 assay, potency of irreversible covalent inhibitors (kinact/KI), coupled PK/LDH ADP readout at 340 nm
Settings: 20 nM enzyme
// units = s⁻¹; emit number, no label

Illustrative cases are given below, each with its answer.
INSERT INTO measurements (compound, value_reported) VALUES
  ('C=CC(=O)N1CC(N2CC(c3cc4c(c(C)n3)OCc3c(N5CCOCC5)ccnc3N4)C2)C1', '4.486e-05'),
  ('C=CC(=O)N1CC(N2CCC(c3cc4c(c(C)n3)OCc3c(-c5cnn(C)c5)ccnc3N4)CC2)C1 [Compound 164]', '7.933e-05'),
  ('C=CC(=O)N1CCC(N2CC(c3cc4c(c(C5CC5)n3)OCc3c(N5CCOCC5)ccnc3N4)C2)CC1 [Compound 341]', '2.9e-05'),
  ('C=CC(=O)N1CC(N2CC[C@H](c3ccc4c(c3)Nc3nccc(N5CCOCC5)c3CO4)[C@@H](F)C2)C1 (single isomer, unassigned) [Compound 109]', '1.425e-05'),
  ('C=CC(=O)N1CCC(N2CC(c3cc4c(c(C(F)(F)F)n3)OCc3c(N5CCOCC5)ccnc3N4)C2)CC1', '3.153e-05'),
  ('C=CC(=O)N1CC(N2CCC(c3ccc4c(c3)Nc3nccc(-c5cnn(C)c5)c3C(C)(C)O4)CC2)C1', '4.64e-05');

Now look at this entry.
Input line: If you can, please state the reported CDK7 (20 nM enz.) (kinact, s^−1) value of CC#CC(=O)N1CCC(N2CC(c3cc4c(c(C5CC5)n3)OCc3c(N5CCOCC5)ccnc3N4)C2)CC1 .
Output line: 2.465e-05

* * *

Molecular target: CDK7/cyclinH/MAT1 trimeric complex (Homo sapiens)
Assay: In vitro CDK7 assay, potency of irreversible covalent inhibitors (kinact/KI), coupled PK/LDH ADP readout at 340 nm
Conditions: read-out: CDK7 (kinact/KI, M^−1*s^−1), potency of irreversible covalent inhibitors; 1 mM ATP, room temperature; averaged values over all measurements
Quick reference for kinact/KI among some compounds
Value and unit, in that order.

Illustrative cases are given below, each with its answer.
INSERT INTO assay_data (compound, readout_label, value_reported) VALUES
  ('C=CC(=O)N1CC(N2CCCC(c3ccc4c(c3)Nc3nccc(N5CCOCC5)c3CO4)C2)C1 (centres unmarked) [Compound 40]', 'kinact/KI', '306 M⁻¹ s⁻¹'),
  ('C=CC(=O)Nc1ccc(CNc2ccc3c(c2)Nc2nccc(N4CCOCC4)c2CO3)cn1 [Compound 16]', 'kinact/KI', '402 M⁻¹ s⁻¹');

Input line: If you can, please state the reported kinact/KI value of C=CC(=O)N1CC(N2CCC(c3ccc4c(c3)OCc3c(N5CCOCC5)ccnc3N4)CC2)C1 [Compound 35] .
Output line: 1090 M⁻¹ s⁻¹

Input line: If you can, please state the reported kinact/KI value of C=CC(=O)N1CC(N2CCC(c3ccc4c(c3)Nc3nccc(N5CCOCC5)c3CO4)C(C)(C)C2)C1 (centres unmarked) [Compound 41] .
Output line: 1010 M⁻¹ s⁻¹

Input line: If you can, please state the reported kinact/KI value of C=CC(=O)N1CCC(C#Cc2ccc3c(c2)Nc2nccc(C4CCOCC4)c2CO3)CC1 [Compound 30] .
Output line: 208 M⁻¹ s⁻¹

Input line: If you can, please state the reported kinact/KI value of C=CC(=O)N1CC(N2CCC(c3ccc4c(c3)Nc3nccc(C5=CCOCC5)c3CO4)CC2)C1 [Compound 10] .
Output line: 1570 M⁻¹ s⁻¹

Input line: If you can, please state the reported kinact/KI value of C=CC(=O)Nc1ccc(-c2ccc3c(c2)Nc2nccc(N4CCOCC4)c2CO3)cn1 [Compound 26] .
Output line: 1620 M⁻¹ s⁻¹

Input line: If you can, please state the reported kinact/KI value of C=CC(=O)N1CC(N2CCC(c3cc4c(cc3F)OCc3c(N5CCOCC5)ccnc3N4)CC2)C1 [Compound 28] .
Output line: 477 M⁻¹ s⁻¹
